Every entry's value here was drawn from ChEMBL document CHEMBL1156829.

# System: Plasmodium falciparum
# assay_info: NOVARTIS: Inhibition of Plasmodium falciparum W2 (drug-resistant) proliferation in erythrocyte-based infection assay
# Assay type: functional, organism-based
# condition_parameters: Plasmodium falciparum, W2; read-out: EC50
EC50 strictly less than 600 nM = Y. Otherwise N.

>  <molecule>
CC(Cc1ccccc1)NCc1ccccc1O (stereo unspecified)

>  <subject_of_test>
Plasmodium falciparum

>  <qualitative_label>
Y

$$$$

IN: Consider `O=C(O)CSc1nc2c(ccc3nsnc32)[nH]1` . Does its EC50 lie strictly below 600 nM?
OUT: N

IN: Strictly below 600 nM in EC50? COc1ccc(C2CC(=O)C3=C(C2)NC(C)=C(C(=O)OC2CCCC2)C3c2ccccc2OC)cc1OC (stereo unspecified)
OUT: Y

IN: Determine whether this molecule shows EC50 lower than 600 nM (ties excluded): `CCOC(=O)c1cccc(NC(=O)CCn2nc(C)c3c(C)n(-c4ccccc4)nc3c2=O)c1`
OUT: N

IN: Hello, is EC50 of the following molecule strictly smaller than 600 nM? COc1ccc(OC)c(-c2ccc(O)c(CN3CCCC(C)C3)c2)c1 (stereo unspecified)
OUT: Y

IN: Determine if `CCOC(=O)c1cnc2c(C)c3[nH]c(C)c(C)c3cc2c1O` shows EC50 strictly lower than 600 nM.
OUT: N

IN: Please indicate whether the reported EC50 of `COc1ccc(OC)c(-c2ccc(O)c(CNC3CCCCCC3)c2)c1` is strictly below 600 nM.
OUT: Y

IN: Is it true that EC50 reported for `Cc1nc(N2CCC(C)CC2)c2c(C)c(C(=O)Nc3ccc(F)cc3)sc2n1` is less than 600 nM?
OUT: N
